protocol notes: NCI Yeast Anticancer Drug Screen. Data for the sgs1 mgt1 strain (AID 161);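 further: 0% = growth of cultures given vehicle only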
run parameters: S. cerevisiae sgs1 mgt1 strain, at 50.0 µM, active compounds read high
The panel holds about 79,000 compounds, 15% with a hit somewhere; the sample as a whole holds those more often.
# key: entry, value: growth inhibition
measured property: growth inhibition (%)

1. CC[n+]1c(/C=C/c2ccc(N(C)C)cc2)ccc2ccccc21 :: 98
2. N#CC1C(=O)NC(=O)C(C#N)C1c1c(Cl)cccc1Cl (stereo not given) :: 94
3. O=C(O)/C(Cl)=C(\Cl)C(=O)Nc1c(Cl)cccc1Cl :: 38.2
4. COc1cc(CC(=O)O)c(Cc2ccc3c(c2)Cc2ccccc2-3)cc1OC :: 52.1
5. CC(Cl)C(=O)Nc1cc2ccccc2oc1=O (stereo not given) :: 9.2
6. NNC(=O)N/N=C(/CC1(O)C(=O)Nc2ccc(Br)cc21)c1ccccc1 (stereo not given) :: 89.6
7. C[N+](C)(C)CC(=O)N/N=C(\C(=O)NC1=C(Cl)C(=O)c2ccccc2C1=O)C(C#N)c1nc(-c2ccc([N+](=O)[O-])cc2)cs1 (stereo not given) :: 60.3
8. [N-]=[N+]=Nc1c(-c2ccccc2)c(=O)n(-c2ccccc2)c2ccccc12 :: 90
9. O=[N+]([O-])c1ccc(N/N=C/CCCCCCCCCCBr)c([N+](=O)[O-])c1 :: 2.4
10. CCCCCOC(=O)c1ccc(O)cc1 :: 51.2

====

protocol notes: NCI Yeast Anticancer Drug Screen. Data for the sgs1 mgt1 strain (AID 161);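 further: 0% = growth of cultures given vehicle only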
run parameters: S. cerevisiae sgs1 mgt1 strain, at 50.0 µM (retest, dose inferred, filed as 5.0), active compounds read high
This is part of a sample that, as a whole, favours compounds with a hit. Of some 79,000 tested, about 15% had one in any assay.
Kind request: treat 40% as inclusive, so growth inhibition at 40% or higher is yes, anything lower is no.

1. O=C(N/C(=C/c1ccc(Cl)cc1Cl)c1nc2ccccc2s1)c1ccccc1 :: yes
2. C/C(=N\NC(=S)N1CC(C)OC(C)C1)c1ncccn1 (stereo unspecified) :: yes
3. Cc1ccc(S(=O)(=O)N2CCN(C)CC2)cc1 :: no
4. O=[N+]([O-])/C(C=Nc1ccccc1)=C/Nc1ccccc1 :: yes
5. CC(C)C(C)(C(=O)O)C(C)C :: no

====

protocol notes: NCI Yeast Anticancer Drug Screen. Data for the bub3 strain (AID 167)
run parameters: S. cerevisiae bub3 mutant strain, at 5.0 µM (retest, dose inferred, filed as 0.5), active compounds read high
The panel holds about 79,000 compounds, 15% with a hit somewhere; the sample as a whole holds those more often.
measured property: growth inhibition (%)

1) CCCCN(CCCC)CC(O)Cc1cc2ccccc2c2ccccc12 (stereo not given) :: 0
2) N=c1n(CC(=O)NC23CC4CC(CC(C4)C2)C3)c2ccccc2n1CC(=O)NC12CC3CC(CC(C3)C1)C2 :: -19
3) Cc1nc(-c2ccc(N=Cc3ccc(N(CCOS(C)(=O)=O)CCOS(C)(=O)=O)cc3)cc2)cs1 :: -3
4) c1ccc2c(c1)Sc1nccc3ccnc-2c13 :: 25
5) CN(C)S(=O)(=O)c1cc(Cl)ccc1NN :: -71

====

protocol notes: NCI Yeast Anticancer Drug Screen. Data for the cln2 rad14 strain (AID 165);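 further: 0% = growth equal to vehicle treated cultures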
run parameters: S. cerevisiae cln2 rad14 strain, at 50.0 µM (retest, dose inferred, filed as 5.0)
Experimental: Growth inhibition of yeast strains with defined genetic alterations is measured as a screen for potential anti-cancer activity. Selected strains with alterations in DNA damage repair or cell cycle control were exposed to compounds and growth inhibition was measured relative to vehicle treated controls. The strain used in this assay is cln2 rad14
Compounds without any hit were thinned out: in the full panel of roughly 79,000, 15% have a hit. Active and inactive are the calls of the source. Cut-off read from the data, not from the text of the source: active = growth inhibition above about 70%; inactive = the rest.
Labels: active, inactive

1. CC(=O)Nc1ccc2c(ccc3cccc[n+]32)c1 :: inactive
2. CC(C)(C)[Si](C)(C)O/N=C\c1cccc(O[Si](C)(C)C(C)(C)C)c1 :: active
3. COC(=O)/C=C1/OC(c2ccccc2)=C(C)C1=O :: inactive
4. O=c1[nH]c2c([N+](=O)[O-])cc(Cl)cc2nc1/C=C(\O)c1ccc(Cl)cc1 :: active
5. O=C(O)C1CC[N-]CC1.O=C(O)C1CC[N-]CC1.[Cl][Pt+2]([Cl])([Cl])[Cl] :: active

====

protocol notes: NCI Yeast Anticancer Drug Screen. Data for the sgs1 mgt1 strain (AID 161);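 further: 0% = growth of cultures given vehicle only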
run parameters: S. cerevisiae sgs1 mgt1 strain, at 50.0 µM (retest, dose inferred, filed as 5.0), active compounds read high
Procedure: Growth inhibition of yeast strains with defined genetic alterations is measured as a screen for potential anti-cancer activity. Selected strains with alterations in DNA damage repair or cell cycle control were exposed to compounds and growth inhibition was measured relative to vehicle treated controls. The strain used in this assay is sgs1 mgt1
The panel holds about 79,000 compounds, 15% with a hit somewhere; the sample as a whole holds those more often.
Kind request: treat 20% as inclusive, so growth inhibition at 20% or higher is met, anything lower is not met.

1) OCC1(c2ccccc2)OC1c1ccccc1 (stereo unspecified) :: not met
2) CCOC(=O)CC1(C)C(=O)CCCC1=O :: not met
3) COC(=O)c1nc(=S)[nH]c(C(=O)OC)c1C(=O)c1ccc([N+](=O)[O-])cc1 :: met
4) CCC1C(c2cccc(OC)c2O)c2cc3c(cc2OC1N1CCCC1)OCO3 (stereo unspecified) :: met
5) CCCCCC[C@@H](O)C/C=C\CCCCCCCC(=O)OCCCC :: not met
6) CCCCOC(=O)C(C)OC(=O)NNc1ccccc1 (stereo unspecified) :: met
7) CCN(CC)CCOc1ccc(C=C2c3ccccc3-c3ccccc32)cc1 :: met
8) O=[N+]([O-])c1ccc(C2=Nn3c(nnc3-c3ccc(Cl)cc3)SC2)o1 :: met
9) O=C(N/N=C/c1ccc2c(c1)OCO2)c1ccc([N+](=O)[O-])cc1 :: not met
10) NC(=S)C1CCC(C2CCCCC2)CC1 (stereo unspecified) :: met
11) COc1ccccc1/C=N/Nc1nnc(N/N=C/c2ccccc2OC)c2ccccc12 :: met

====

protocol notes: NCI Yeast Anticancer Drug Screen. Data for the sgs1 mgt1 strain (AID 161);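 further: 0% = growth of cultures given vehicle only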
run parameters: S. cerevisiae sgs1 mgt1 strain, at 50.0 µM
This is part of a sample that, as a whole, favours compounds with a hit. Of some 79,000 tested, about 15% had one in any assay. Active and inactive are the calls of the source. No stated cut-off is given here; in the data, active means growth inhibition above about 70%; inactive means the rest.
Labels: YES (active), NO (inactive)

1. COC(=O)C(=O)N(c1cc(C)ccc1C)c1cc(C)ccc1C :: YES
2. C/C=C\C=N\NC(N)=S :: NO
3. O=C1N=c2ccc(Br)cc2=C1c1sc(=O)n(Cc2nc3ccccc3[nH]2)c1O :: YES
4. CC(C)(Cl)C(Cl)CC/C(CBr)=C(\Cl)CBr (stereo unspecified) :: YES
5. O=C(N/N=C/c1ccc2c(c1)OCO2)c1ccc([N+](=O)[O-])cc1 :: NO
6. CN(C)CCCN1c2ccc3ccccc3c2Sc2cccc(Cl)c21 :: YES
7. CCCCCCCCCCCC(=O)NCCc1ccc(O)c(O)c1 :: YES
8. O=[N+]([O-])/C(C(Cl)=C(Cl)Cl)=C(/Cl)SCc1ccccc1 :: YES
9. CC1=C/C(=C(/c2ccc(O)c(C)c2)c2ccccc2C(=O)O)C=CC1=O :: YES
10. C=C(C)C1CC/C(C)=C/CCC2(C)OC2CC/C(CO)=C\C1O (stereo unspecified) :: YES
11. O=C1c2ccc(S(=O)(=O)O)cc2C(=O)c2ccc(S(=O)(=O)O)cc21 :: NO

====

# key: entry, value: growth inhibition
protocol notes: NCI Yeast Anticancer Drug Screen. Data for the mlh1 rad18 strain (AID 175)
run parameters: S. cerevisiae mlh1 rad18 strain growth inhibition; at 50.0 µM; active compounds read high
This is part of a sample that, as a whole, favours compounds with a hit. Of some 79,000 tested, about 15% had one in any assay.
measured property: growth inhibition (%)

1. COC(=O)C1=C(C)NC(C)=C(C(=O)OC)C1c1ccc(/[N+]([O-])=C/c2ccccc2)cc1 :: 93.2
2. CCOC1NC(=S)N(C2CCCCC2)C1(C)C (stereo unspecified) :: 16.6
3. Nc1ccccc1Nc1c([N+](=O)[O-])cc(C(F)(F)F)cc1[N+](=O)[O-] :: 90.5
4. CCC[CH2][Sn]([CH2]CCC)([O]N(C)C(=O)c1ccc(Br)cc1)[O]N(C)C(=O)c1ccc(Br)cc1 :: 90.5
5. O=C1CN(Cc2ccc(Cl)cc2)CC(=O)N2Cc3ccccc3CN12 :: -11
6. COC(=O)[C@]1(C)CCC[C@]2(C)c3ccc(C(C)C)cc3C(=O)C[C@@H]12 :: 94.5
7. CC(C)N=Cc1cc(Br)cc(Br)c1O.CC(C)N=Cc1cc(Br)cc(Br)c1O.[Co] :: 88.7
8. O=S(=O)(OCC#CCOS(=O)(=O)c1ccc(Cl)c(Cl)c1)c1ccc(Cl)c(Cl)c1 :: 48.2
9. NC(=O)C1CCCN1C(=O)C1CCCN(Cc2cc(CN3CCCC(C(=O)N4CCCC4C(N)=O)C3)cc(CN3CCCC(C(=O)N4CCCC4C(N)=O)C3)c2)C1 (stereo unspecified) :: 28.6
10. CC(=O)OC(OC(C)=O)c1ccc([N+](=O)[O-])o1 :: 99
11. CC1(c2ccc(O)cc2)CC(C)(c2ccc(O)cc2)C1 (stereo unspecified) :: 92.8
12. COc1ccc(CN2COc3c(cc(Cl)c4cccnc34)C2)cc1 :: 99.5
13. Cc1c(-c2ccccc2)ccnc1/C=N/NC(=S)NCCc1ccccc1 :: 74
14. CCCCCCCCCCCCO :: 76.4
15. CCOc1ccc(C=Nc2ccc(/C=C(\C)C(=O)OCCC(C)C)cc2)cc1 :: 98
16. COc1ccc(C2C3CCCC(C(c4ccc(OC)cc4)N2C)C32NC(=O)NC2=O)cc1 (stereo unspecified) :: 97.6
17. CC(C)C12CCC3(CCC4C(C)(C(=O)O)CCCC4(C)C3C1)C(CN)C2 (stereo unspecified) :: 93.3
18. Nc1ccc(C(=O)N/C(=C\c2ccc3c(c2)OCO3)c2nc3ccccc3s2)cc1 :: 98.4
19. COc1ccc(-c2c(C#N)cc(OC)c(OC)c2OC)c(C=O)c1 :: 76.3
20. O=Cc1cc([N+](=O)[O-])ccc1O :: 97
21. CC1=CC(c2c(O)cc(O)c(C(=O)CCc3ccccc3)c2O)C(C(C)C)CC1 (stereo unspecified) :: 82.2
